Quick list: pIC50 per entry.
EXPERIMENTAL SYSTEM: SMYD3 (Homo sapiens (Human), UniProt Q9H7B4)
Sequence (Q9H7B4 whole entry): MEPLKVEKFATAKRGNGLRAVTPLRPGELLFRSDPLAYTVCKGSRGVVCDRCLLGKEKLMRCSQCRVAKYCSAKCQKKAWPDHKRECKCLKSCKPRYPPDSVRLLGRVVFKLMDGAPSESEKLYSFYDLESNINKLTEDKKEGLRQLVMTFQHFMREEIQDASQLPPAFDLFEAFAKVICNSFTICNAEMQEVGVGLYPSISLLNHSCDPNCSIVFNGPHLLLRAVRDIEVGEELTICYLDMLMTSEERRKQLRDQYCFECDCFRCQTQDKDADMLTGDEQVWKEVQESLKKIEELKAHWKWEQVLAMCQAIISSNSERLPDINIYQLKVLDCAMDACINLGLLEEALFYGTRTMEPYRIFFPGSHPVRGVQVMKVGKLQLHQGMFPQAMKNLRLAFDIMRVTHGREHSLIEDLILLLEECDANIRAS
PROCEDURE DETAILS: SMYD3 biochemical assay (SPA, 3H-SAM methylation of MEKK2 protein substrate)
EXPERIMENTAL PARAMETERS: read-out: SMYD3 Biochem IC50*
Quick note: pIC50 values are minus log10 of concentrations in mol/L.

Task: Field request: pIC50 | item: O=C(N[C@H]1C[C@H]2CC[C@@H](C1)N2S(=O)(=O)N1C2CNCC1C2)c1cc(C2CC2)on1 [compound 832]
Output: 8.36

Task: Can you check COCCCNC1CCN(S(=O)(=O)N2[C@@H]3CC[C@H]2C[C@@H](NC(=O)c2cc(C4CC4)on2)C3)CC1 [compound 869] next?
Output: 8.04

Task: Quick one: O=C(N[C@H]1C[C@H]2CC[C@@H](C1)N2S(=O)(=O)N1CCC(NCc2ccccc2)CC1)c1cc(C2CC2)on1 [compound 810]
Output: 8.60

Task: Then this compound: O=C(N[C@H]1C[C@H]2CC[C@@H](C1)N2S(=O)(=O)N1CCC2(CCN2)CC1)c1cc(C2CC2)on1 [compound 849]
Output: 8.23

Task: How about this compound: CC1CN(S(=O)(=O)N2CC[C@H](NC(=O)c3cc(C4CC4)on3)C[C@@H]2C)CCC1N (some centres unmarked) [compound 800]
Output: 8.66

Task: Then CC(C)CNC1CCN(S(=O)(=O)N2CC[C@H](NC(=O)c3cc(C4CC4)on3)C[C@@H]2C)CC1 [compound 843] ?
Output: 8.29

Task: Cool, now CCc1cc(C(=O)N[C@H]2C[C@H]3CC[C@@H](C2)N3S(=O)(=O)CC2CCN(CCCC(F)(F)F)CC2)no1 [compound 779]
Output: 8.92

Task: Next compound up: CC1CC(N)CCN1S(=O)(=O)N1CC[C@H](NC(=O)c2cc(C3CC3)on2)C[C@@H]1C (some centres unmarked) [compound 890]
Output: 7.88

Further cases:
Task: May I ask what pIC50 has been recorded for CCCc1cc(C(=O)N[C@H]2C[C@H]3CC[C@@H](C2)N3S(=O)(=O)CC2CCN(C)CC2)no1 [compound 965] ?
Output: 7.07

Task: Same thing, different compound: CC1CC(N)CCN1S(=O)(=O)N1[C@@H]2CC[C@H]1C[C@@H](NC(=O)c1cc(C3CC3)on1)C2 (some centres unmarked) [compound 803]
Output: 8.64

Task: And O=C(N[C@H]1C[C@H]2CC[C@@H](C1)N2S(=O)(=O)N1CC2CCC(C1)N2CCCO)c1cc(C2CC2)on1 [compound 850] ?
Output: 8.21

* * *

EXPERIMENTAL SYSTEM: SMYD3 (Homo sapiens (Human), UniProt Q9H7B4)
PROCEDURE DETAILS: SMYD3 cell assay (Trimethyl-MEKK2 In-Cell Western in 293T/17 cells)
Type: cell-based
EXPERIMENTAL PARAMETERS: 293T/17 cells; read-out: SMYD3 Cell IC50 (μM)*
Experimental: Trimethyl-MEKK2-in-Cell Western Assay MEM/Glutamax medium, Optimem Reduced Serum medium, penicillin-streptomycin, 0.05% trypsin and 1×D-PBS were purchased from Life Technologies, Grand Island, N.Y., USA. […] Plasmids were prepared for delivery to cells by first mixing 1350 μL Opti-MEM with Fugene (81 μL) in a sterile Eppendorf and incubated for five minutes at room temperature (RT). […] Room temperature MEM+10% Tet system FBS was added and cells were mixed gently, and counted using the Vi-cell. […]
RECORDED ENDPOINT: IC50 (µM)
Number in µM, nothing else.

Task: What does the record list as IC50 for C[C@@H](C(=O)N1CC[C@H](NC(=O)c2cc(C3CC3)on2)C[C@@H]1C)C1CCNCC1 ?
Output: 13.6

Task: And then C[C@H]1C[C@@H](NC(=O)c2cc(C3CC3)on2)CCN1S(=O)(=O)c1ccccn1 , what is it?
Output: 0.676

Task: Record: O=C(N[C@@H]1C[C@H]2CC[C@@H](C1)N2S(=O)(=O)CCN1CCCC1)c1cc(C2CC2)on1 (single isomer, unassigned) [Cpd. No. 436]
Output: 0.285

Task: Then this compound: COCCN(C)c1ccc(S(=O)(=O)N2CC[C@H](NC(=O)c3cc(C4CC4)on3)C[C@@H]2C)cn1
Output: 8.22

Task: Cool, now NCCCS(=O)(=O)N1CCC(NC(=O)c2cc(C3CC3)on2)C[C@@H]1c1ccccc1 (stereo partly drawn)
Output: 2.24

Task: Try the compound C[C@@H]1C[C@H](NC(=O)c2cc(C3CC3)on2)CCN1S(=O)(=O)c1c[nH]cn1
Output: 2.58

Task: Now this one: NCCCC(=O)N1CC[C@H](NC(=O)c2cc(C3CC3)on2)C[C@@H]1Cc1ccccc1
Output: 1.62

Task: Cool, now NCCCC(=O)N1CC[C@H](NC(=O)c2cc(C3CC3)on2)C[C@H]1Cc1ccccc1
Output: 19.6

Task: What do you have for CC1CN(C(=O)[C@H]2CC[C@H](N)CC2)C(C)CC1NC(=O)c1cc(C2CC2)on1 (stereo partly drawn) ?
Output: 0.569

Task: Please answer likewise for NCCCS(=O)(=O)N1[C@@H]2CC[C@H]1C[C@H](NC(=O)c1cc(C3CC3)on1)C2
Output: 1.44

Task: Item: C[C@@H]1C[C@H](NC(=O)c2cc(C3CC3)on2)CCN1S(=O)(=O)c1ccccc1
Output: 7.83
